test: Inhibition of human CCR6 expressed in CHO cells assessed as decrease in human CCL20-dependent cell migration incubated for 4 hrs by Diff-Quik staining based assay
metric_name: IC50 (nM)
// return numeric value only (unit: nM, not printed)

[Q] Item Cc1ccc(S(=O)(=O)N2CCC(Nc3ccc(C#N)cn3)CC2)cc1 has what recorded IC50?
[A] 1400

[Q] Item N#Cc1ccc(NC2CCN(S(=O)(=O)c3ccc(-c4ccccc4)cc3)CC2)nc1 has what recorded IC50?
[A] 240
